Below is a list of entries, each paired with its recorded Nav1.8, pIC50 value.
- TARGET OR TEST SYSTEM: UniProt:Q9Y5Y9
- EXPERIMENTAL PROTOCOL: QPatch 48 HTX voltage-clamp electrophysiology, half inactivation state (V1/2) protocol, HEK293-Nav1.8 cells
- Type: cell-based
- RUN CONDITIONS: HEK293 cells expressing human Nav1.8, human Navβ1 and human TREK1, P2 current
TEST READOUT: Nav1.8, pIC50

- O=C1c2cc(F)c(F)cc2N2CN1c1ccc(=O)[nH]c1NCCCc1cc(F)ccc12 [Example 91]: 7.9
- Cl.O=C1c2cc(F)c(Cl)cc2N2CN1c1ccc(=O)[nH]c1CCNCc1c2ccc(F)c1F [Example 49]: 8.2
- Cl.O=C1c2cc(Cl)c(F)cc2N2CN1c1ccc(=O)[nH]c1NCCCc1c2ccc(F)c1F [Example 101]: 7.8

* * *

Examples of molecules with documented Nav1.8, pIC50 follow.
- TARGET OR TEST SYSTEM: human Nav1.8 (Homo sapiens (Human))
- EXPERIMENTAL PROTOCOL: QPatch 48 HTX voltage-clamp electrophysiology, half inactivation state (V1/2) protocol, HEK293-Nav1.8 cells
- Type: cell-based
- RUN CONDITIONS: HEK293 cells expressing human Nav1.8, human Navβ1 and human TREK1, P2 current
Counter-ions that a name gives are not always drawn.
TEST READOUT: Nav1.8, pIC50

* O=C1c2cc(C(F)(F)F)ccc2N2CN1c1ccc(=O)[nH]c1CCCOc1cc(F)ccc12 [Example 16] | 6.0
* O=C1c2cc(F)c(F)cc2N2CN1c1ccc(=O)[nH]c1NCCCc1c2ccc(F)c1F [Example 98, formic acid salt] | 7.6
* Cl.O=C1c2cc(F)c(C(F)(F)F)cc2N2CN1c1ccc(=O)[nH]c1CNCCCc1c2ccc(F)c1F [Example 106] | 8.1
* O=C1c2cnc(C(F)(F)F)cc2N2CN1c1ccc(=O)[nH]c1NCCCc1cc(F)ccc12 [Example 36] | 6.6
* COc1c(F)ccc2c1CNCCc1[nH]c(=O)ccc1N1CN2c2cc(C#N)c(F)cc2C1=O.Cl [Example 73] | 6.1
* O=C1c2ccc(C(F)(F)F)cc2N2CN1c1ccc(=O)[nH]c1C/C=C\Cc1cc(F)ccc12 [Example 5] | 6.3
* O=C1c2cc(C(F)(F)F)ccc2N2CN1c1ccc(=O)[nH]c1CCNCc1cc(F)ccc12 [Example 41] | 7.3
* Cl.O=C1c2cc(Cl)c(F)cc2N2CN1c1ccc(=O)[nH]c1CCNCc1c2ccc(F)c1F [Example 69] | 7.6
* O=C1c2cc(C(F)(F)F)ccc2N2CN1c1ccc(=O)[nH]c1CCCCNc1cc(F)ccc12 [Example 25] | 6.2
* Cl.O=C1c2cc(F)c(C(F)(F)F)cc2N2CN1c1ccc(=O)[nH]c1CCNCc1c2ccc(F)c1F [Example 48] | 8.1
* O=C1c2cc(C(F)(F)F)ccc2N2CN1c1cc[n+]([O-])cc1CCCCCc1cc(F)ccc12 [Example 26] | 8.3
* O=C1c2cc(C(F)(F)F)ncc2N2CN1c1ccc(=O)[nH]c1CCCCc1cc(F)ccc12 [Example 40] | 6.0
* O=C1c2cc(F)c(C(F)(F)F)cc2N2CN1c1ccc(=O)[nH]c1NCCOCc1cc(F)ccc12 [Example 129] | 6.4
* O=C1c2cnc(C(F)(F)F)cc2N2CN1c1ccc(=O)[nH]c1CCCCCc1cc(F)ccc12 [Example 9] | 7.3
* O=C1c2cc(C(F)(F)F)ccc2N2CN1c1ccc(=O)[nH]c1NCCCc1cc(F)ccc12 [Example 27] | 7.8
* O=C1c2cc(F)c(C(F)(F)F)cc2N2CN1c1ccc(=O)[nH]c1CCNCc1c2ccc(F)c1Cl [Example 58] | 8.9
* O=C1c2cc(Cl)c(F)cc2N2CN1c1ccc(=O)[nH]c1CCNCc1cc(F)ccc12 [Example 43] | 7.4
* O=C1c2cc(C(F)(F)F)ncc2N2CN1c1ccc(=O)[nH]c1NCCCc1c2ccc(F)c1F [Example 38] | 6.8
* CCC1NCCc2[nH]c(=O)ccc2N2CN(c3cc(C(F)(F)F)c(F)cc3C2=O)c2ccc(F)cc21.Cl (stereo not shown) [Example 126] | 7
* C[C@H]1NCCCc2[nH]c(=O)ccc2N2CN(c3cc(C(F)(F)F)c(F)cc3C2=O)c2ccc(F)cc21 [Example 136] | 6.9
* O=C1c2cc(C(F)(F)F)cnc2N2CN1c1ccc(=O)[nH]c1CCCCc1cc(OC(F)(F)F)ccc12 [Example 17] | 6.1
* O=C1c2ccc(C(F)(F)F)cc2N2CN1c1ccc(=O)[nH]c1CCCCc1cc(F)ccc12 [Example 6] | 7.1
* CN1CCc2cc(F)ccc2N2CN(C(=O)c3cc(F)c(C(F)(F)F)cc32)c2ccc(=O)[nH]c2CC1 [Example 112] | 6.2
* O=C1c2cc(F)c(C(F)(F)F)cc2N2CN1c1ccc(=O)[nH]c1NCCCc1cc(F)ccc12 [Example 32] | 8.4
* O=C1c2cc(OC(F)(F)F)ccc2N2CN1c1ccc(=O)[nH]c1NCCCc1cc(F)ccc12 [Example 31] | 7.5
* Cl.O=C1c2cc(F)c(C(F)(F)F)cc2N2CN1c1ccc(=O)[nH]c1CCNCc1cc(Cl)ccc12 [Example 66] | 8.2
* Cl.O=C1c2cc(F)c(C(F)(F)F)cc2N2CN1c1ccc(=O)[nH]c1CCNCCc1cc(F)ccc12 [Example 111] | 7.1
* Cl.O=C1c2cc(F)c(F)cc2N2CN1c1ccc(=O)[nH]c1CCCNCc1c2ccc(F)c1Cl [Example 109] | 6.8

* * *

- TARGET OR TEST SYSTEM: human Nav1.8 (Homo sapiens (Human), UniProt Q9Y5Y9)
- Sequence (Q9Y5Y9 whole entry): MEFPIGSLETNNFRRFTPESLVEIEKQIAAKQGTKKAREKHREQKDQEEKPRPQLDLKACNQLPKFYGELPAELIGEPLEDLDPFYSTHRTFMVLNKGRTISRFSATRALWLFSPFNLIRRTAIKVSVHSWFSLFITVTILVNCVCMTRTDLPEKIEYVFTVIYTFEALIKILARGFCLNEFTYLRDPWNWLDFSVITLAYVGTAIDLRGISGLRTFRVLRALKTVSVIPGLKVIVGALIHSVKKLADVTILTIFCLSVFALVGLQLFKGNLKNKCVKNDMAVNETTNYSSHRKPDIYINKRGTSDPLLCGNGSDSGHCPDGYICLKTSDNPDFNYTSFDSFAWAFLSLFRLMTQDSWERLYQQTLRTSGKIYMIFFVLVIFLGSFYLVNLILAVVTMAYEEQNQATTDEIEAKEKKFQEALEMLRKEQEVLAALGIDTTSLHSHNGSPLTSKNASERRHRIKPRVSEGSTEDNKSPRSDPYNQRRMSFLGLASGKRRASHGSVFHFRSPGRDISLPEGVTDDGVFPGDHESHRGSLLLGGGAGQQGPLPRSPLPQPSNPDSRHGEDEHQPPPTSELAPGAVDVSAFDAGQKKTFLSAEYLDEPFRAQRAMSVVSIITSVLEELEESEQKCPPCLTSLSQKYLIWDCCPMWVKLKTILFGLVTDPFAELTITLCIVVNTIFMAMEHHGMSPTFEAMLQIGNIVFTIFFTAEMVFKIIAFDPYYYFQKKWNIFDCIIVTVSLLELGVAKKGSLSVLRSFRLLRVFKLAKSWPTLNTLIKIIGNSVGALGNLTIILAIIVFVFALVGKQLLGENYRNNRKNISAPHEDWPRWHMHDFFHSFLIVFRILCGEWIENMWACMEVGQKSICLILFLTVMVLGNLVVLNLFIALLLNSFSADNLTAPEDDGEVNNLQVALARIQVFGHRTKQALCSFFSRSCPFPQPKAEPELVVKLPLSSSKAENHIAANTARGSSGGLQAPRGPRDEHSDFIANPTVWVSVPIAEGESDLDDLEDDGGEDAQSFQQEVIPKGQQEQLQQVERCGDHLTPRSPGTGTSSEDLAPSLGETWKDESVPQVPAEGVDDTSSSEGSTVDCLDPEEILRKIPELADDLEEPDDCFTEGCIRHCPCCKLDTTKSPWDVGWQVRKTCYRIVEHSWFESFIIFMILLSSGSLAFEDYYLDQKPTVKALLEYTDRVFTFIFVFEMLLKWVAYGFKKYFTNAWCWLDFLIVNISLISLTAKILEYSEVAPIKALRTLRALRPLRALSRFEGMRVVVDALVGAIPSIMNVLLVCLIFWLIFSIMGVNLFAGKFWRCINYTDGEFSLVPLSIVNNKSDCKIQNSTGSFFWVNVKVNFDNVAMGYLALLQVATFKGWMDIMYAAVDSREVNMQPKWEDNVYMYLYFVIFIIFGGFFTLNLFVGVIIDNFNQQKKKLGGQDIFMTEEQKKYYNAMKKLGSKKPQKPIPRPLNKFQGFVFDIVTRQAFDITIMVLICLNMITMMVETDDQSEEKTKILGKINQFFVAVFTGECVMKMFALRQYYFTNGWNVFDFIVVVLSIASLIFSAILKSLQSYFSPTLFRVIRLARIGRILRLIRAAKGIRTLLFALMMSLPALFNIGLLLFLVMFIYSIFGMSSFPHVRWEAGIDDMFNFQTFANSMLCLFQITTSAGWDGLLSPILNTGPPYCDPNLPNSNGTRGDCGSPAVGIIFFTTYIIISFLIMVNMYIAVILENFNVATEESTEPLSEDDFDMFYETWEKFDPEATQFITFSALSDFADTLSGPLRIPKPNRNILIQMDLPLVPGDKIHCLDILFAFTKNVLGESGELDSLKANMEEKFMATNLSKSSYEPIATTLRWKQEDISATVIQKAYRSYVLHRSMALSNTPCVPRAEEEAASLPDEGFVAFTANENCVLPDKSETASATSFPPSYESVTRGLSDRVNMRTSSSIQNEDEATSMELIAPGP
- Sequence (Q07699 19-218 partner): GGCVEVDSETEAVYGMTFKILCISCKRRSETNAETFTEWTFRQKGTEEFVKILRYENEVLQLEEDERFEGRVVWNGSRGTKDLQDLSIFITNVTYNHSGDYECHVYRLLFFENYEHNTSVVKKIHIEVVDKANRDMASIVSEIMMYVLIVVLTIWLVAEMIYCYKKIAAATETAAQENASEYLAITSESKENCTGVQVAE
- EXPERIMENTAL PROTOCOL: QPatch 48 HTX voltage-clamp electrophysiology, half inactivation state (V1/2) protocol, HEK293-Nav1.8 cells
- Assay type: cell-based
- RUN CONDITIONS: HEK293 cells expressing human Nav1.8, human Navβ1 and human TREK1, P2 current
TEST READOUT: Nav1.8, pIC50

- O=C1c2cc(C(F)(F)F)ccc2N2CN1c1ccc(=O)[nH]c1C/C=C\Cc1cc(F)ccc12: 6.4
- Cl.O=C1c2cc(F)c(Cl)cc2N2CN1c1ccc(=O)[nH]c1CCNCc1cc(F)ccc12: 8
- O=C1c2cc(C(F)(F)F)ccc2N2CN1c1ccc(=O)[nH]c1NCCCCc1cc(F)ccc12: 7.3
- O=C1c2ccc(C(F)(F)F)cc2N2CN1c1ccc(=O)[nH]c1CCCCOc1cc(F)ccc12: 6.5
- CC1(C)CNCc2cc(F)ccc2N2CN(C(=O)c3cc(F)c(C(F)(F)F)cc32)c2ccc(=O)[nH]c21: 7.3

* * *

- TARGET OR TEST SYSTEM: human Nav1.8 (Homo sapiens (Human))
- EXPERIMENTAL PROTOCOL: QPatch 48 HTX voltage-clamp electrophysiology, half inactivation state (V1/2) protocol, HEK293-Nav1.8 cells
- Format: cell-based
- RUN CONDITIONS: HEK293 cells expressing human Nav1.8, human Navβ1 and human TREK1, P2 current
Where a name gives a salt, the structure may show the parent alone.
TEST READOUT: Nav1.8, pIC50

• O=C1c2cc(Cl)c(F)cc2N2CN1c1ccc(=O)[nH]c1NCCCc1cc(F)ccc12 = 7.5
• O=C1c2ccc(C(F)(F)F)cc2N2CN1c1ccc(=O)[nH]c1CCCCCc1cc(F)ccc12 = 8.4
• Cl.N#Cc1cc2c(cc1Cl)C(=O)N1CN2c2ccc(F)c(F)c2CNCCc2[nH]c(=O)ccc21 = 7.5
• O=C1c2cc(C(F)(F)F)ccc2N2CN1c1ccc(=O)[nH]c1CCCCc1cc(F)ccc12 = 6.8
• CN1CCCc2[nH]c(=O)ccc2N2CN(c3cc(F)c(F)cc3C2=O)c2ccc(F)c(Cl)c2C1.Cl = 6.9
• O=C1c2c(ccc(C(F)(F)F)c2F)N2CN1c1ccc(=O)[nH]c1CCNCc1cc(F)ccc12 = 6.9
• O=C1c2cc(C(F)(F)F)ccc2N2CN1c1ccc(=O)[nH]c1NCCCc1c2ccc(F)c1F = 7.7
• CC1NCCc2[nH]c(=O)ccc2N2CN(c3ccc(C(F)(F)F)cc3C2=O)c2ccc(F)cc21 (racemic) [Example 114, hydrochloride] = 6.8
• O=C1c2cc(C(F)(F)F)c(F)cc2N2CN1c1ccc(=O)[nH]c1NCCCc1cc(F)ccc12 = 7.7
